Value source: paper PMC7734281

molecular target: m-NTPDase1 (Mus musculus); construct: made in house; host or cells: COS-7 cells, transient transfection; crude protein extract after sonication; assay: m-NTPDase1 inhibition, malachite green assay; format: biochemical; details: mean ± SEM of three independent experiments
Sequence (P55772 whole entry): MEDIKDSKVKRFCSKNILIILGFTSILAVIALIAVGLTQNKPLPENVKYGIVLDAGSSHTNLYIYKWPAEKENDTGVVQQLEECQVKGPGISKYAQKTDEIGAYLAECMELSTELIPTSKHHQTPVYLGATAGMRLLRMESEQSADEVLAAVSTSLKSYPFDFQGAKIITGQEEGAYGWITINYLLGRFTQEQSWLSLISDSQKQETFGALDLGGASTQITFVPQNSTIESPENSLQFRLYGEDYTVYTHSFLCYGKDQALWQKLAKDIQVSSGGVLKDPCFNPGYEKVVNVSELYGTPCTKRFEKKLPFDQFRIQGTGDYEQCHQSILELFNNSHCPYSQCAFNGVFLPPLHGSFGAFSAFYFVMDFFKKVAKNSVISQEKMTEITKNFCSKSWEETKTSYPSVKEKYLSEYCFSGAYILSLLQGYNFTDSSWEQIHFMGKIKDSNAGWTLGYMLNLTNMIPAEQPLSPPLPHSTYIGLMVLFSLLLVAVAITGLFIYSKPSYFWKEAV
parameter: IC50 (µM)

O=C1Nc2ccccc2/C1=N/NC(=S)Nc1c(F)cccc1F; 3.22

1: CCNC(=S)N/N=C1\C(=O)Nc2ccccc21
2: COc1cccc(NC(=S)N/N=C2\C(=O)Nc3ccccc32)c1
Data request: Sorting by IC50 in descending order, would 1 or 2 appear first? # answer = label of selected item
Data returned: 1
(1: 3.6 µM, 2: 0.6 µM)
